# System under test: T1, CH2-4 constant domains of human IgE linked to a transmembrane protein, on 293 cells (human, UniProt P01854-1 104-428)
# T1 construct: domain: CH2-4 constant domains; also called human IgE-expressing 293 cells
# T1 sequence (P01854 other isoform, or with tags, fused parts or gaps): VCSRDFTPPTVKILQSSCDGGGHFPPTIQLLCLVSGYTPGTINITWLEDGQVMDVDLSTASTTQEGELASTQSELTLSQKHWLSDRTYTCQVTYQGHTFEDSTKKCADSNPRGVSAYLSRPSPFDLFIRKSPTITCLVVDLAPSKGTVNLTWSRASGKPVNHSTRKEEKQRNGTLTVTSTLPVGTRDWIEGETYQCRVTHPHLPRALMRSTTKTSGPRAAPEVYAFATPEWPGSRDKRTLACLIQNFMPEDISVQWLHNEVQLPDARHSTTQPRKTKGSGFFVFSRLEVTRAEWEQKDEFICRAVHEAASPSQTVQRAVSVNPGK
# Assay procedure: flow cytometry, 293 cells expressing human IgE CH2-4
Readout: pKd
Worth noting: pKd values are minus log10 of concentrations stated in mol/L.

Req: Item hzB10v9-NNT (Fc fusion, monomeric) VHH-Fc: EVQLVQSGGELVQAGGSLRLSCVASGLTFSSYNMGWLRQAPGKEREFVGVSGSSSTSTYYADSVKGRFTISRDNSKNTVYLQMNSLKPEDTAVYYCAARRMLSTYWSDRSWDFWGQGTQVTVKPGGPSVFLFPPKPKDTLMISRTPEVTCVVVDVSHEDPEVKFNWYVDGVEVHNAKTKPREEQYNSTYRVVSVLTVLHQDWLNGKEYKCKVSNKALPAPIEKTISKAKGQPREPQVYTLPPSRDELTKNQVNLTCLVKGFYPSDIAVEWESNGQPENNYKTTPPVLDSDGSFFLNSTLTVDKSRWQQGNVFSCSVMHEALHNHYTQKSLSLSPGK has what recorded pKd?
Resp: 8.55
